This collection of values is drawn from patent US6706740B2.

Readout: melting point

CC(C)C(=O)O[C@H]1[C@H](C)OC(=O)[C@@H](NC(=O)c2conc2O)COC(=O)[C@@H]1Cc1ccccc1: 115 to 117 °C
COc1ccnc(C(=O)Nc2cccc(OC3CC(C)(C)OC(C)(C)C3)c2)c1O: 149 to 153 °C
O=C(NCc1ccc(Cl)c(Cl)c1)c1ncccc1O: 100 to 101 °C
CSc1nnc(C(=O)NC2CCCCCCC2)c(O)n1: 208 to 213 °C

Take each entry in turn and give its melting point.
1. COc1ccnc(C(=O)NC2COC(=O)C[C@H](NC(=O)OCc3ccccc3)C(=O)OC2)c1O (stereo partly drawn)
2. O=C(NCC1CCCc2ccccc21)c1nc(Br)ccc1O (stereo not drawn)
3. CSc1ccnc(C(=O)NC2COC(=O)[C@H](Cc3ccccc3)[C@@H](OC(=O)C(C)C)[C@H](C)OC2=O)c1O (stereo partly drawn)
4. COc1ccnc(C(=O)Nc2ccc(Oc3ccc(C(F)(F)F)cc3)cc2)c1OC(C)=O
5. COc1ccnc(C(=O)N[C@H]2COC(=O)[C@H](Cc3ccccc3)[C@@H](OC(=O)C(C)C)[C@H](C)OC2=O)c1OC(=O)CC(C)(C)C

// result
190 to 192 °C
140 to 142 °C
184 to 187 °C
165 to 166 °C
151 to 152 °C

====

tested on: Septoria tritici—SEPTTR; assay: Leaf Blotch of Wheat, in vivo whole plant, 24 Hour Protectant; settings: Zymoseptoria tritici, 24 h, wheat plants sprayed at 100 ppm, inoculated after 24 hours; control of fungal infection vs untreated plants; read-out: SEPTTR in vivo 1 Day Protectant
Readout: pest or weed control at 100 ppm

Sample answers from the record:
O=C(Oc1cccnc1C(=O)NC1CCC(OC(=O)c2ccccc2)CC1)c1ccccc1 (stereo not drawn): 25 to 74%
CC1(C)CC(NC(=O)c2ccncc2O)CC(C)(C)C1: < 25%

Read the next record carefully.
// query Field: pest or weed control at 100 ppm (Septoria tritici—SEPTTR). Entry: O=C(NCC1CCCc2ccccc21)c1nc(Br)ccc1O (stereo not drawn)
// result < 25%

====

Consider the following compounds; for each one, report its pest or weed control at 100 ppm.
test system: Septoria tritici—SEPTTR; test: Leaf Blotch of Wheat, in vivo whole plant, 24 Hour Protectant; conditions: Zymoseptoria tritici, 24 h, 100 ppm spray, 24 hour protectant, wheat; control of fungal infection vs untreated plants; read-out: SEPTTR in vivo 1 Day Protectant

Sample answers from the record:
O=C(NCc1ccc(Cl)c(Cl)c1)c1ncccc1O [Compound 221]: < 25%
COc1ccnc(C(=O)NC2CCN(C(=O)CCc3ccccc3)CC2)c1O [Compound 309]: < 25%
Cc1ccnc(C(=O)NC2COC(=O)[C@H](Cc3ccccc3)[C@@H](OC(=O)C(C)C)[C@H](C)OC2=O)c1O (some centres unmarked) [Compound 237]: 25 to 74%
CC(=O)OC1CCC(NC(=O)c2ncccc2O)CC1 (centres unmarked) [Compound 209]: 25 to 74%
COc1ccnc(C(=O)NC2CSCC(c3ccccc3)C2)c1O (centres unmarked) [Compound 324]: 25 to 74%

Take each entry in turn and give its pest or weed control at 100 ppm.
1. O=C(N[C@H]1CC2CC1[C@@H]1CCC[C@H]21)c1ncccc1O (some centres unmarked) [Compound 206]
2. O=C(NCc1cccc(Cl)c1)c1ncccc1O [Compound 219]
3. CC1(C)CC(NC(=O)c2ncccc2O)CC(C)(C)C1=O [Compound 205]

// result
1. < 25%
2. < 25%
3. < 25%

====

system: Rhizoctonia solani (RHIZSO); assay: microbe, parasite or virus in culture; format: cell-based; settings: Rhizoctonia solani, read-out: RHIZSO in vitro Growth Inhibition
Consider the following compounds; for each one, report its inhibition at 25 ppm.

COc1ccnc(C(=O)N[C@H]2CC3CC2[C@H](COCc2cccc(C(F)(F)F)c2)C3)c1O (stereo partly drawn): > 80%
COc1ccnc(C(=O)N[C@H]2CC3CC2[C@@H](COCc2cccc(C(F)(F)F)c2)C3)c1O (stereo partly drawn): > 80%

Read the next record carefully.
// query Which measured inhibition at 25 ppm value corresponds to COc1ccnc(C(=O)Nc2ccc(Oc3ccc(C)cc3)cc2)c1O ?
// result < 80%

====

Consider the following molecules; for each one, report its pest or weed control at 100 ppm.
system: Leptosphaeria nodorum—LEPTNO; experiment: Glume Blotch of Wheat, in vivo whole plant, 24 Hour Protectant; conditions: Leptosphaeria; 100 ppm spray, 24 hour protectant, wheat; control of fungal infection vs untreated plants; read-out: LEPTNO in vivo 1 Day Protectant

Sample answers from the record:
COc1ccnc(C(=O)NC2CC(C)(C)CC(C)(C(=O)c3ccccc3)C2)c1O (stereo not shown): 25 to 74%
CCCCC1(C)CCCC(NC(=O)c2nccc(OC)c2O)C1 (stereo not shown): 25 to 74%
COc1ccnc(C(=O)NC2CCCCCCC2)c1O: 25 to 74%

Read the next record carefully.
// query Which measured pest or weed control at 100 ppm value corresponds to C[C@@H](NC(=O)c1ncccc1O)c1cccc2ccccc12 ?
// result < 25%

====

system: Septoria tritici—SEPTTR; assay: Leaf Blotch of Wheat, in vivo whole plant, 24 Hour Protectant; settings: Zymoseptoria tritici, 24 h, 100 ppm spray, wheat, 24 hour protectant; control of fungal infection vs untreated plants; read-out: SEPTTR in vivo 1 Day Protectant
Readout: pest or weed control at 100 ppm

Sample answers from the record:
COc1ccnc(C(=O)N[C@H]2COC(=O)[C@H](Cc3ccccc3)[C@@H](O)[C@H](C)OC2=O)c1O: < 25%
COc1ccnc(C(=O)N[C@H]2COC(=O)[C@H](Cc3ccccc3)[C@@H](OC(=O)/C=C(\C)CCC=C(C)C)[C@H](C)OC2=O)c1O: 25 to 74%
COc1ccnc(C(=O)Nc2cccc(Oc3ccc(C)cc3)c2)c1O: < 25%
COc1ccnc(C(=O)Nc2cc(C)c(OC(=O)c3ccccc3)c(C)c2)c1O: 25 to 74%

Read the next record carefully.
// query Field: pest or weed control at 100 ppm (Septoria tritici—SEPTTR). Entry: COc1ccnc(C(=O)N[C@@H]2OC[C@@H](OCc3ccccc3)[C@H](OCc3ccccc3)[C@H]2OCc2ccccc2)c1O
// result 25 to 74%

====

Consider the following compounds; for each one, report its pest or weed control at 100 ppm.
tested on: Erysiphe graminis—ERYSGT; experiment: Powdery Mildew of Wheat, in vivo whole plant, 24 Hour Protectant; conditions: Erysiphe; 100 ppm spray, wheat, 24 hour protectant; control of fungal infection vs untreated plants; read-out: ERYSGT in vivo 1 Day Protectant

COc1ccnc(C(=O)N[C@H]2[C@@H](OC(C)=O)O[C@H](COC(C)=O)[C@@H](OC(C)=O)[C@@H]2OC(C)=O)c1O [Compound 335]: < 25%

Take each entry in turn and give its pest or weed control at 100 ppm.
1. COc1ccnc(C(=O)N[C@H]2C[C@@H](O[Si](C)(C)C(C)(C)C)O[C@@H](C)[C@@H]2OCc2ccccc2)c1O [Compound 328]
2. COc1ccnc(C(=O)Nc2ccc(Cc3cccc(C(F)(F)F)c3)cc2)c1O [Compound 404]
3. CO/N=C(/c1ccc(NC(=O)c2nccc(OC)c2O)cc1)c1ccc(C(F)(F)F)cc1 [Compound 409]
4. COc1ccnc(C(=O)N[C@H]2COC(=O)[C@H](Cc3ccccc3)[C@@H](OC(=O)NC(C)C)[C@H](C)OC2=O)c1O [Compound 399]
5. COc1ccnc(C(=O)NC(COC(=O)C(Cc2ccccc2)C(C)OC(=O)c2ccccc2)C(=O)OC(C)C)c1O (stereo not shown) [Compound 356]
6. COc1ccc(Oc2ccccc2NC(=O)c2nccc(OC)c2O)cc1 [Compound 429]
7. COc1ccnc(C(=O)N[C@@H]2OC[C@@H](OCc3ccccc3)[C@H](OCc3ccccc3)[C@H]2OCc2ccccc2)c1O [Compound 332]

// result
1. < 25%
2. 25 to 74%
3. 25 to 74%
4. < 25%
5. < 25%
6. < 25%
7. < 25%

Take each entry in turn and give its pest or weed control at 100 ppm.
1. COc1ccnc(C(=O)N[C@H]2COC(=O)[C@H](Cc3ccccc3)[C@@H](OC(=O)C3C(C)CCCC3C)[C@H](C)OC2=O)c1O (stereo partly shown) [Compound 393]
2. COc1ccnc(C(=O)Nc2ccc(OC3CC(C)(C)CC(C)(C)C3)cc2)c1O [Compound 458]

// result
1. < 25%
2. < 25%
